Reported GI50 by item:
# System: HCT-15
# assay_procedure: NCI tumour cell line growth inhibition, 48 h
reported_endpoint: GI50

- compound: "COC(=O)C1ON2C(C1C(=O)OC)C(C)(C)N(O)C2(C)C (stereo unspecified)"
  reported_endpoint: "GI50"
  obs_value: "> 10 µM"
- compound: "Cc1ccc2c(=O)c(-c3n[nH]c(=S)s3)c[nH]c2n1"
  reported_endpoint: "GI50"
  obs_value: "> 100 µM"
- compound: "Cn1c(=O)c2c(nc(NCCCCl)n2CC(=O)O)n(C)c1=O"
  reported_endpoint: "GI50"
  obs_value: "> 100 µM"
- compound: "CCOC(=O)C(=O)/C(=C/NC(=S)c1ccncc1)C(=O)OCC"
  reported_endpoint: "GI50"
  obs_value: "> 100 µM"
- compound: "COC(=O)CCC(=O)c1ccc2c(c1)CCC2"
  reported_endpoint: "GI50"
  obs_value: "> 100 µM"
- compound: "Cc1ccc(C(=O)N/N=C(\\N=N\\c2ccc(C(=O)O)cc2)c2ccc(N(CCC#N)CCC#N)cc2C)cc1"
  reported_endpoint: "GI50"
  obs_value: "> 100 µM"
